Molecular target: human CD3 ed (human, UniProt P07766 23-126; P04234 22-105, limits assumed)
Sequence (P07766 23-126 limits assumed, chain 1 of 2): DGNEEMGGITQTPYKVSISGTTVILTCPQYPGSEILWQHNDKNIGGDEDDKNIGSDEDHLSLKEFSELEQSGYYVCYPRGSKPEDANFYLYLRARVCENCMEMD
Sequence (P04234 22-105 limits assumed, chain 2 of 2): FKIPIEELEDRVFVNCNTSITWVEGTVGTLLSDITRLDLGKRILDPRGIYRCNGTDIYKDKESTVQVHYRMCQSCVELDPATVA
Experiment: SPR Biacore T200, IgG captured on protein A, 25 C;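 also: antigens diluted in ACES running buffer at pH 7.4 were flowed over antibodies held on a CM3 chip bearing amine-coupled protein A, with buffer alone serving as blank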
observation type: Kd (nM)

{"binder": "dBBDu189/L119 (antibody, V domains shown, IgG format; constant regions not specified) VH: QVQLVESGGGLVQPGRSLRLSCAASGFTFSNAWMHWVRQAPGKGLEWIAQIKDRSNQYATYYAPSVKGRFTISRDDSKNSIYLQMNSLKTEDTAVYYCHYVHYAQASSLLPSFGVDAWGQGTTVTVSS VL: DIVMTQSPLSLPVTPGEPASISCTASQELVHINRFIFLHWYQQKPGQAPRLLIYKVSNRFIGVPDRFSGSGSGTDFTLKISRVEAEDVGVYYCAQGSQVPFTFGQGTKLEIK", "observation type": "Kd", "data value": 2060}
{"binder": "dBBDu186/L096 (antibody, V domains shown, IgG format; constant regions not specified) VH: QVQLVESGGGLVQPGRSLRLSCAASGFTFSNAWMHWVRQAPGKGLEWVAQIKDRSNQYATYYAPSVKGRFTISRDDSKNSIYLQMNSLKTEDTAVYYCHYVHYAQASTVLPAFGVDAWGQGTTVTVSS VL: DIVMTQSPLSLPVTPGEPASISCRTSQELVHINRYIFLHWYQQKPGQAPRLLIYKVYNRFQGVPDRFSGSGSGTDFTLKISRVEAEDVGVYYCAQGTSVPYTFGQGTKLEIK", "observation type": "Kd", "data value": 9110}
{"binder": "dBBDu193/L127 (antibody, V domains shown, IgG format; constant regions not specified; also called dBBDu_193 dBBDu.L127) VH: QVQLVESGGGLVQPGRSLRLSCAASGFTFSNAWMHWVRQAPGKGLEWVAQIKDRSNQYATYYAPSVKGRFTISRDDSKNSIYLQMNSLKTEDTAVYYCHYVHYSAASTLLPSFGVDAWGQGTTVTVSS VL: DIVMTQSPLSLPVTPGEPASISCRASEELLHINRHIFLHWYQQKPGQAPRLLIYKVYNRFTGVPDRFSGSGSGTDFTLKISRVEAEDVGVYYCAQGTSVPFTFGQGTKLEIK", "observation type": "Kd", "data value": 1510}
